These measurements were taken from patent US20230272011A1.

kon values, listed per item
Biological target: T1, human PD-L1-Fc (R&D Systems) chimeric protein (human, UniProt Q9NZQ7 19-239)
T1 construct: Bought reagent; also called rhPD-L1-Fc; huPD-L1; Fc part of the bought chimera not given, not described
T1 sequence (Q9NZQ7 19-239, change not shown): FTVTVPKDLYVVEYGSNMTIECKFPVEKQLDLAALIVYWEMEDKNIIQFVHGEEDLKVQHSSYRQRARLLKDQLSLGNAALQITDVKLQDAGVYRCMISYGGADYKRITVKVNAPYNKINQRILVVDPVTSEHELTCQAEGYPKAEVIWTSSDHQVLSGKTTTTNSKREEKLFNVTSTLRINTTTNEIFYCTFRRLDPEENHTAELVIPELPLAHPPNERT
Experiment: SPR (Biacore T200), PD-L1-Fc amine-coupled to CM5, Affimer analyte
Outcome measure: kon (M⁻¹ s⁻¹)

{"Binder": "AVA04-269 XT11 (designed binder) MIPRGLSEAKPATPEIQEIVDKVKPQLEEKTNETYGKLEAVQYKTQVLAKEYGPEEWWSTNYYIKVRAGDNKYMHLKVFNGPGDYEQVLIHADRVLTGYQVDKNKDDELTGFGGGGSGGGGSGGGGSGGGGSGGGGSGGGGSMIPRGLSEAKPATPEIQEIVDKVKPQLEEKTNETYGKLEAVQYKTQVLANFFQRRWPGSTNYYIKVRAGDNKYMHLKVFNGPWKFRNTDRGADRVLTGYQVDKNKDDELTGFHHHHHH", "Assay value": 796000}
{"Binder": "AVA04-236 XT8 (designed binder) MIPRGLSEAKPATPEIQEIVDKVKPQLEEKTNETYGKLEAVQYKTQVLAKEHGPDSWWSTNYYIKVRAGDNKYMHLKVFNGPQEKNQWVEEADRVLTGYQVDKNKDDELTGFAEAAAKEAAAKEAAAKEAAAKEAAAKEAAAKMIPRGLSEAKPATPEIQEIVDKVKPQLEEKTNETYGKLEAVQYKTQVLANFFQRRWPGSTNYYIKVRAGDNKYMHLKVFNGPWKFRNTDRGADRVLTGYQVDKNKDDELTGFHHHHHH", "Assay value": "1.52e+06"}
{"Binder": "AVA04-236 XT7 (designed binder) MIPRGLSEAKPATPEIQEIVDKVKPQLEEKTNETYGKLEAVQYKTQVLAKEHGPDSWWSTNYYIKVRAGDNKYMHLKVFNGPQEKNQWVEEADRVLTGYQVDKNKDDELTGFGGGGSGGGGSGGGGSGGGGSGGGGSGGGGSMIPRGLSEAKPATPEIQEIVDKVKPQLEEKTNETYGKLEAVQYKTQVLANFFQRRWPGSTNYYIKVRAGDNKYMHLKVFNGPWKFRNTDRGADRVLTGYQVDKNKDDELTGFHHHHHH", "Assay value": "1.57e+06"}
